# System: WHIM30 (cells of a triple-negative basal-like breast cancer xenograft)
# method_notes: cell viability (% of vehicle); higher = less cytotoxic;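 note: PDX cells carrying CMV promoter-driven luciferase, viability read as total photon flux per second by IVIS imaging following D-luciferin, vehicle control 0.1% DMSO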
# stated_conditions: 10 µM; 72 h
measure_name: cell viability
When you answer, write just the number.

- compound: "Nc1ccn(C2CSC(CO)O2)c(=O)n1 (stereo unspecified) [Lamivudine]"
  cell viability: 84.4
- compound: "O=C(O)CO.[NH2-].[NH2-].[Pt+2] [Nedaplatin]"
  cell viability: 66
- compound: "COc1cc2ncnc(Nc3ccc(F)c(Cl)c3)c2cc1NC(=O)C=CCN1CCCCC1"
  cell viability: 47.4
- compound: "CC(=O)OC1(C(C)=O)CCC2C3CC(C)C4=CC(=O)CCC4(C)C3CCC21C (stereo unspecified) [Medroxyprogesterone acetate]"
  cell viability: 184
- compound: "CCCCC1C(=O)N(c2ccccc2)N(c2ccccc2)C1=O [Phenylbutazone]"
  cell viability: 119
- compound: "CC(=O)Nc1ncc([N+](=O)[O-])s1 [Nithiamide]"
  cell viability: 91.3

Next item in the queue.
Ask: Tell me the measured cell viability of COc1cc(NC(C)CCCN)c2ncccc2c1.O=P(O)(O)O.O=P(O)(O)O (stereo unspecified) [Primaquine Diphosphate] , please.
Reply: 112

====

# Tested on: HCI09 (cells of a triple-negative luminal androgen receptor type breast cancer xenograft)
# method_notes: cell viability (% of vehicle); higher = less cytotoxic
# stated_conditions: 10 µM; 72 h
Measured cell viability of individual entries
When you answer, write just the number.

Here's what some known entries look like.
- compound: "CC(C)(Sc1cc(C(C)(C)C)c(O)c(C(C)(C)C)c1)Sc1cc(C(C)(C)C)c(O)c(C(C)(C)C)c1 [Probucol]"
  cell viability: 116
- compound: "Cc1ccc(-c2ncc(Cl)cc2-c2ccc(S(C)(=O)=O)cc2)cn1 [Etoricoxib]"
  cell viability: 85.1
- compound: "CC12C=CC(=O)NC1CCC1C2CCC2(C)C(C(=O)Nc3cc(C(F)(F)F)ccc3C(F)(F)F)CCC12 (centres undefined) [Dutasteride]"
  cell viability: 114

Next item in the queue.
Ask: Tell me the measured cell viability of O=C(O)c1ccccc1 [Benzoic Acid] , please.
Reply: 109

====

# Test system: HCI09
# method_notes: cell viability (% of vehicle); higher = less cytotoxic
# stated_conditions: 10 µM; 72 h
measure_name: cell viability
When you answer, write just the number.

Here's what some known entries look like.
- compound: "CC(C)N=c1cc2n(-c3ccc(Cl)cc3)c3ccccc3nc-2cc1Nc1ccc(Cl)cc1"
  system_name: "HCI09"
  cell viability: 38.8
- compound: "Cc1cc(C2CCCCC2)n(O)c(=O)c1"
  system_name: "HCI09"
  cell viability: 26.8

Ask: I'm curious: which cell viability was measured for `CCC(=C(CC)c1ccc(O)cc1)c1ccc(O)cc1` tested on HCI09?
Reply: 61.4

Ask: I'm curious: which cell viability was measured for O=C1OC(C(O)CO)C([O-])=C1O.[Na+] (stereo not drawn) [Sodium ascorbate] tested on HCI09?
Reply: 90.3

====

# Tested on: HCI09
# method_notes: cell viability (% of vehicle); higher = less cytotoxic
# stated_conditions: 10 µM; 72 h
Consider the cut-off 90. If the recorded cell viability is strictly smaller, the label is 1 (yes); if not, the label is 0 (no).

- compound: "C#CC1(O)CCC2C3CCC4=CC(=O)CCC4C3CCC21C (configuration not stated)"
  category: "0 (no)"
- compound: "Cl.NC(N)=NC(=O)c1nc(Cl)c(N)nc1N.O.O [Amiloride HCl dihydrate]"
  category: "0 (no)"
- compound: "CN(C)CC=CC(=O)Nc1cc2c(Nc3ccc(F)c(Cl)c3)ncnc2cc1OC1CCOC1 (configuration not stated)"
  category: "1 (yes)"
- compound: "CN(CCOc1ccc(CC2SC(=O)NC2=O)cc1)c1ccccn1.O=C(O)C=CC(=O)O (configuration not stated) [Rosiglitazone maleate]"
  category: "0 (no)"
- compound: "CC1CCN(C(=O)CC#N)CC1N(C)c1ncnc2[nH]ccc12.O=C(O)CC(O)(CC(=O)O)C(=O)O (configuration not stated)"
  category: "1 (yes)"

Ask: Quick check: does `O=C(O)c1cc(=O)c2ccccc2o1` have cell viability under 90?
Reply: 0 (no)

Ask: Quick check: does CC(C)CC(N)=O [Isovaleramide] have cell viability under 90?
Reply: 0 (no)

Ask: Quick check: does O[C@@H]1CO[C@H]2[C@@H]1OC[C@@H]2O [Isosorbide] have cell viability under 90?
Reply: 0 (no)

Ask: Quick check: does O=C(CCCCCCC(=O)Nc1ccccc1)NO [Vorinostat (SAHA, MK0683)] have cell viability under 90?
Reply: 1 (yes)

Ask: Quick check: does CC(=O)OC1CCC2(C)C(=CCC3C2CCC2(C)C(c4cccnc4)=CCC32)C1 (configuration not stated) [Abiraterone acetate] have cell viability under 90?
Reply: 1 (yes)

Ask: Quick check: does Nc1ccc(C(=O)NCC(=O)[O-])cc1.[Na+] [Sodium 4-amiropparaty Hyalrate] have cell viability under 90?
Reply: 0 (no)

Ask: Quick check: does CCOC(=O)C1=C(COCCN)NC(C)=C(C(=O)OC)C1c1ccccc1Cl.O=S(=O)(O)c1ccccc1 (configuration not stated) [Amlodipine Besylate] have cell viability under 90?
Reply: 1 (yes)
